target: recombinant soluble homotrimeric HA of A/common magpie/Hong Kong/5052/07 (H5N1) (Influenza A virus A/common magpie/Hong Kong/5052/2007 (H5N1)); assay: HA microarray, BCC supernatant; details: remark: other sources report otherwise
We begin with a simple list: items and their reported Trimeric HA Binding RLU.
Reply numerically in RLU, unit not repeated.

Could you tell me which Trimeric HA Binding RLU is on file for TCN-563 (5237_B21) (antibody, V domains shown) VH: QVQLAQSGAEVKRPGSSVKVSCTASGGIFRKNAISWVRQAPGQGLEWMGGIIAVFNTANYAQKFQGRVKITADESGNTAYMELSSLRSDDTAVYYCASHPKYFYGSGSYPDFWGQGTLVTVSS VL: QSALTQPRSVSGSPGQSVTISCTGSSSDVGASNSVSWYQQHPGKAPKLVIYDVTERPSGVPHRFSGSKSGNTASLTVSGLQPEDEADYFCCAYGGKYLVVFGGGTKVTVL ?
27500

What value of Trimeric HA Binding RLU has been reported for the following binder? TCN-534 (5249_B02) (antibody, V domains shown) VH: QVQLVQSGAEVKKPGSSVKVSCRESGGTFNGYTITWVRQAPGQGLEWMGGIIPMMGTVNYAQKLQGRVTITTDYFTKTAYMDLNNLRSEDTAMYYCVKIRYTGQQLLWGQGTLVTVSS VL: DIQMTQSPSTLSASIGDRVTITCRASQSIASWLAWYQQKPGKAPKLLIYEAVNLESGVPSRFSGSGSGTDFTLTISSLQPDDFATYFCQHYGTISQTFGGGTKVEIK
32500

Which Trimeric HA Binding RLU is listed for TCN-552 (5249_I23) (antibody, V domains shown) VH: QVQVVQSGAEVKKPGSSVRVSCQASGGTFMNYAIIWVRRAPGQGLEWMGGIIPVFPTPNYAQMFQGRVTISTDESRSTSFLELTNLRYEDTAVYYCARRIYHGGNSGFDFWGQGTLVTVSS VL: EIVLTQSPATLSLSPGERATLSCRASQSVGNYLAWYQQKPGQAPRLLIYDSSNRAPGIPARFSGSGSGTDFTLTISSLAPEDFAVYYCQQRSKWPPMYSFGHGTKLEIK ?
42200
